assayedTarget: Intercellular adhesion molecule (ICAM-1), Integrin alpha-L/beta-2 (Homo sapiens, UniProt P05107+P20701)
Sequence (P20701 whole entry): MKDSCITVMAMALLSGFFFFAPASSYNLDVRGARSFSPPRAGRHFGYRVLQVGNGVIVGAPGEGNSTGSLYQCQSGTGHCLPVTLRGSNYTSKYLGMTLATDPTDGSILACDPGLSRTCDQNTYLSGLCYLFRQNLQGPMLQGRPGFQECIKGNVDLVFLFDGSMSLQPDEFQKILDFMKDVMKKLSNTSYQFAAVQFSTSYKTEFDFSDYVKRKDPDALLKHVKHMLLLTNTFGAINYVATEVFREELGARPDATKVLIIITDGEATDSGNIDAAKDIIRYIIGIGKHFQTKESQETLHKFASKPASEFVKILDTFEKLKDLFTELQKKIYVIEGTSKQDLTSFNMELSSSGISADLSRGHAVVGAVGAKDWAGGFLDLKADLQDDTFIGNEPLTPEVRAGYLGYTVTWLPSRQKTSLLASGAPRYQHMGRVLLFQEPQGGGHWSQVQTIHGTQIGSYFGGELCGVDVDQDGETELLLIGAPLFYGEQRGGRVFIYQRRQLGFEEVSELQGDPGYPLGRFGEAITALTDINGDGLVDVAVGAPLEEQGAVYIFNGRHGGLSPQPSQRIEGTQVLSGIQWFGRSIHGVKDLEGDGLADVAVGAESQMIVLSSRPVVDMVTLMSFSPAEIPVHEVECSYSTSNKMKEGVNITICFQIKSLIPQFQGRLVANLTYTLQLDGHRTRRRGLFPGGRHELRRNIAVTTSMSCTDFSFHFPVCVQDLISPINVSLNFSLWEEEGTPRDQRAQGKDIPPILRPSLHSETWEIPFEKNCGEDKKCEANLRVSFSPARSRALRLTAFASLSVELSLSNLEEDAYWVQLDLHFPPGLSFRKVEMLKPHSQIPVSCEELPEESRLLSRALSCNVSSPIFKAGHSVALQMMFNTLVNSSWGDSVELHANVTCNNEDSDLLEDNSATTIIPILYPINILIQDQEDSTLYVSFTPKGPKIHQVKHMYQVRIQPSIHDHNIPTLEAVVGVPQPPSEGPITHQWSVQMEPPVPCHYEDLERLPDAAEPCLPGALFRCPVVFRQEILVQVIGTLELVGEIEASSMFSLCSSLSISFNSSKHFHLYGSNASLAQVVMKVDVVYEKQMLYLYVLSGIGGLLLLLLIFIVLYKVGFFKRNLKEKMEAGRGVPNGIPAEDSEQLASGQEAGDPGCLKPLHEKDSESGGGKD
Sequence (P05362 whole entry, further chain): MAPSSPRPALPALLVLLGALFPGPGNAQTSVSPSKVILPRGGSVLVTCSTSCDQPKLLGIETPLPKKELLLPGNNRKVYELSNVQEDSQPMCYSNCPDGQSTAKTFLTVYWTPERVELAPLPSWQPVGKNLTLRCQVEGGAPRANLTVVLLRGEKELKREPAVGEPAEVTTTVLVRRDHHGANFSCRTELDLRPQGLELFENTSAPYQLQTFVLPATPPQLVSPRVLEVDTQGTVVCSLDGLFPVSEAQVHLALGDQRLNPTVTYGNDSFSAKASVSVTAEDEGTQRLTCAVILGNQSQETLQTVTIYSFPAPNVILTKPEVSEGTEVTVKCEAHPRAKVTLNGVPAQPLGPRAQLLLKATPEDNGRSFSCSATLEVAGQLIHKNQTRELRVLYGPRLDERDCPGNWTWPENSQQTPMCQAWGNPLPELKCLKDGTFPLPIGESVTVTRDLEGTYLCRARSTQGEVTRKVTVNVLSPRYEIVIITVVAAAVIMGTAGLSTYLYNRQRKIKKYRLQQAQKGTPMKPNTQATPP
Sequence (P05107 whole entry): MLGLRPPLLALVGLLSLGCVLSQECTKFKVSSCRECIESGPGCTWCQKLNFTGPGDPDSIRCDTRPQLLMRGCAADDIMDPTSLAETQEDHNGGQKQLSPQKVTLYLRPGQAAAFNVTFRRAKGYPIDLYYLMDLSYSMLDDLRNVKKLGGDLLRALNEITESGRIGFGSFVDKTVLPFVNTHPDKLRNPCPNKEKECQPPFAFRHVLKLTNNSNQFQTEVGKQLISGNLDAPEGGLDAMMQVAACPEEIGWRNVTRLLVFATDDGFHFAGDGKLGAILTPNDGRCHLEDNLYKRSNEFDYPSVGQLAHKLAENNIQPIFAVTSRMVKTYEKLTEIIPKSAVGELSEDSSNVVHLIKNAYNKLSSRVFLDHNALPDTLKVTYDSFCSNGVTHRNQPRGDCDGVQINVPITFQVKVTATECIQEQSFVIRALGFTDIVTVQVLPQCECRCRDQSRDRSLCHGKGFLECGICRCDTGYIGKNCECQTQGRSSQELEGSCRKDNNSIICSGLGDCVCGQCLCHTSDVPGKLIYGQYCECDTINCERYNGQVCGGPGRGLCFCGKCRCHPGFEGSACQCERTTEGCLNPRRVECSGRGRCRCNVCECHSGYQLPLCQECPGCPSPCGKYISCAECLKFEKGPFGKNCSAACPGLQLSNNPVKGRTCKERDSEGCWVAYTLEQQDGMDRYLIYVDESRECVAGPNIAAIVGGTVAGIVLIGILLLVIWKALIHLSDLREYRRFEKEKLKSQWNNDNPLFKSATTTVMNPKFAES
experimentDescription: Dissociation constant for human Lymphocyte function associated antigen 1 in LFA-1/ICAM-1 binding assay
Type: protein-complex assay
In this section we review reported pKd values for a set of molecules.
Value format note: pKd is -log10 of concentration (mol/L); just state the number.

Recorded pKd, per entry:
CC(=O)OCCCCS(=O)(=O)c1cnc2n1[C@](C)(Cc1ccc(Br)cc1)C(=O)N2c1cc(Cl)cc(Cl)c1 | 7.52
CC1(Cc2ccc(Br)cc2)C(=O)N(c2cc(Cl)cc(Cl)c2)c2ncc(I)n21 (stereo not drawn) | 6.39
CC1(Cc2ccc(Br)cc2)C(=O)N(c2cc(Cl)cc(Cl)c2)c2ncc(S(C)(=O)=O)n21 (stereo not drawn) | 7.15

Record CC1(Cc2ccc(Br)cc2)C(=O)N(c2cc(Cl)cc(Cl)c2)c2nnnn21 (stereo not drawn) , field pKd: 6.96

The measured pKd associated with C[C@@]1(Cc2ccc(Br)cc2)C(=O)N(c2cc(Cl)cc(Cl)c2)c2ncc(S(=O)(=O)N3CCNCC3)n21 reads 7.30

Looking up Cc1cnc2n1C(C)(Cc1ccc(Br)cc1)C(=O)N2c1cc(Cl)cc(Cl)c1 (stereo not drawn) , I see its pKd listed as 6.47

###

assayedTarget: Intercellular adhesion molecule (ICAM-1), Integrin alpha-L/beta-2 (Homo sapiens, UniProt P05107+P20701)
experimentDescription: Dissociation constant for human Lymphocyte function associated antigen 1 in LFA-1/ICAM-1 binding assay
Assay type: protein-complex assay
pKd: −log10 of the molar value.
Please use Fulfilled whenever pKd is not below 7, and Not fulfilled whenever it is.

C[C@@]1(Cc2ccc(Br)cc2)C(=O)N(c2cc(Cl)cc(Cl)c2)c2ncc(S(=O)(=O)N3CCC(=O)CC3)n21 | Fulfilled
CC1(Cc2ccc(Br)cc2)C(=O)N(c2cc(Cl)cc(Cl)c2)c2nccn21 (racemic) | Not fulfilled
CC1(Cc2ccc(Br)cc2)C(=O)N(c2cc(Cl)cc(Cl)c2)c2nc(C#N)cn21 (configuration not stated) | Not fulfilled

Exercise: Does pKd meet or surpass 7 for CC1(Cc2ccc(Br)cc2)C(=O)N(c2cc(Cl)cc(Cl)c2)c2nc(S(C)(=O)=O)cn21 (configuration not stated) ?
Key: Not fulfilled

Exercise: Check this compound for pKd at or above 7: C[C@@]1(Cc2ccc(Br)cc2)C(=O)N(c2cc(Cl)cc(Cl)c2)c2ncc(S(=O)(=O)CCO)n21
Key: Fulfilled

Exercise: Check this compound for pKd at or above 7: CC1(Cc2ccc(Br)cc2)C(=O)N(c2cc(Cl)cc(Cl)c2)c2nc(I)cn21 (configuration not stated)
Key: Not fulfilled
